Assay: logP determination by HPLC on reversed-phase column (C18), EEC Directive 79/831 Annex V.A8
Format: physicochemical
Details: reversed-phase C18, acetonitrile/water with formic acid
# if measured logP < 3: yes  # else: no

compound | assigned-category
Cc1ccc(-c2cnn(-c3c(S(C)(=O)=O)c(C(F)(F)C(F)(F)F)nn3C)c2)cc1C(=O)NC1CC1 [Example I-09] | yes
CCSc1c(C(F)(F)C(F)(F)F)nn(C)c1-n1cc(-c2ccc(Cl)c(C(=O)NC3CC3)c2)cn1 [Example I-11] | no
Cn1nc(C(F)(F)F)c(S(C)(=O)=O)c1-n1cc(-c2ccc(Cl)c(C(=O)NC3CC3)c2)cn1 [Example I-05] | yes
Cc1ccc(-c2cnn(-c3c([S+](C)[O-])c(C(F)(F)C(F)(F)F)nn3C)c2)cc1C(=O)NC1CC1 (stereo not shown) [Example I-18] | yes
CSc1c(C(F)(F)C(F)(F)F)nn(C)c1-n1cc(-c2cnc(Cl)c(C(=O)N(C)C3CC3)c2)cn1 [Example I-19] | no
Cc1ccc(-c2cnn(-c3c([S+](C)[O-])c(C(F)(F)C(F)(F)F)nn3C)c2)cc1C(=O)NC1(C#N)CC1 (stereo not shown) [Example I-24] | yes
CSc1c(C(F)(F)C(F)(F)F)nn(C)c1-n1cc(-c2ccc(C)c(C(=O)NC3CC3)c2)cn1 [Example I-17] | no
